Experiment: Single-dose pharmacokinetics in rats (plasma, UHPLC/MS/MS)
Assay type: in vivo, Sprague Dawley rats
Conditions: both sexes, Sprague Dawley, rat, plasma, iv, 42 mg/kg; read-out: MRT0-∞
value-type: MRT inf (h)
Write the number in h without appending the unit.

{"columns": ["substance-smiles", "value-type", "units-text", "value-observed"],
 "data": [
  ["C[C@@H]1O[C@@H](O[C@H]2[C@H](Oc3cc(O)c4c(c3)O[C@H](c3ccc(O)cc3)CC4=O)O[C@H](CO)[C@@H](O)[C@@H]2O)[C@H](O)[C@H](O)[C@H]1O", "MRT inf", "h", 0.57]
]}

Value lookup for MRT inf; key = O=C1C[C@@H](c2ccc(O)cc2)Oc2cc(O)cc(O)c21 3.66

Where do the numbers come from? From paper PMC7118210.
